Tested on: K. pneumoniae GN_106, PmxR
run-conditions: GN 106, PmxR
Positions of bridges follow the written chain, without caps; N, C: chain ends. Non-standard residues stand in square brackets, D forms with d. Residues, ends and D or L forms follow the SMILES beside them. *: point of attachment. Decanoyl(3R-OH) = CCCCCCC[C@@H](O)CC(=O)*; dDab = NCC[C@@H](N)C(=O)O; Octanoyl = CCCCCCCC(=O)*; Dab = NCC[C@H](N)C(=O)O
measurement-type: MIC K. pneumoniae GN_106, PmxR

{"columns": ["compound", "measurement-type", "observed-value"],
 "data": [
  ["CCCCCCC[C@@H](O)CC(=O)N[C@H](CCN)C(=O)N[C@H]1CCNC(=O)[C@H]([C@@H](C)O)NC(=O)[C@H](CCN)NC(=O)[C@H](CCNC(=O)[C@@H](N)CCCNC(=N)N)NC(=O)[C@H](CC(C)C)NC(=O)[C@@H](Cc2ccccc2)NC(=O)[C@H](CCN)NC1=O [compound 6656] ({Decanoyl(3R-OH)}-[dDab][Dab][Dab][dF]L[Dab](Arg)[Dab]T; lactam 2-C)", "MIC K. pneumoniae GN_106, PmxR", ">32 µg/mL"]
]}

Shift focus to the following entry.
Item: CCCCCCCC(=O)N[C@H](CCN)C(=O)N[C@H]1CCNC(=O)[C@H](Cc2c[nH]c3ccccc23)NC(=O)[C@H](CCN)NC(=O)[C@H](CCN)NC(=O)[C@H](CC(C)C)NC(=O)[C@@H](Cc2ccccc2)NC(=O)[C@H](CCN)NC1=O [compound 8901] (Octanoyl-[dDab][Dab][Dab][dF]L[Dab][Dab]W; lactam 2-C) | MIC K. pneumoniae GN_106, PmxR: 32 µg/mL
